Test system: PXR:RXRa (NR concentration 270 nM, RXRa partner concentration 90 nM)
Assay: PBM binding z-score (relative to random genomic background probes); higher = stronger binding; sequences stand for … in GC…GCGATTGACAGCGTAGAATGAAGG
PROPERTY: PBM binding z-score

Worked set:
>  <RESIDUES>
TCATATAGGTAATACAGGTGAAAGTGGGCATCTA

>  <PBM binding z-score>
1.02

$$$$
>  <RESIDUES>
TCTAGCCGGCCAGAGGGTCACTCAAGAGGTACGG

>  <PBM binding z-score>
1.48

$$$$
>  <RESIDUES>
TCTCGGAGGACTCGAAGGTCAGAGCTTTCCAGAG

>  <PBM binding z-score>
1.04

$$$$
>  <RESIDUES>
GCTAGTTGGTCTGTAAAAGGTCACACACCGGTCG

>  <PBM binding z-score>
4.79

$$$$
>  <RESIDUES>
ACAGACAGGTGATGGAGGTAACTCAGGCTATCAT

>  <PBM binding z-score>
-0.304

$$$$
>  <RESIDUES>
TCGAGTAGGTTAGGTGCATTCAGAATGGCGTCGA

>  <PBM binding z-score>
0.0438

$$$$
>  <RESIDUES>
CCGACTGGGGCAAGGGTTACCATACTCAGTACGA

>  <PBM binding z-score>
0.443

$$$$
>  <RESIDUES>
GTACCAAGGTGAATAAGTCGTTGATGAGTAGGCG

>  <PBM binding z-score>
-0.129

$$$$

INPUT: Reported PBM binding z-score for `TCTTGTAGATCAGCAGGTTAACAAAGCTGGCCAA` : what is it?
OUTPUT: 0.171

INPUT: Reported PBM binding z-score for `CGTCCAAGGTCAAAGGCCAGTGAAGAGATGACGG` : what is it?
OUTPUT: 4.39

INPUT: Reported PBM binding z-score for `GCAGACAGGTGAAACGCAGATAACTCAGGGTGGC` : what is it?
OUTPUT: -0.239

INPUT: Reported PBM binding z-score for `TTACTAAGGTGAGCTGAGGTCGTTGATCCAACTC` : what is it?
OUTPUT: 5.17

INPUT: Reported PBM binding z-score for `TAGCCTTGGTCATTCAGGGGCCAGTATAGAAAGC` : what is it?
OUTPUT: 0.0515

INPUT: Reported PBM binding z-score for `CGTCAAAGTTCAAGGAAACGTAACAGAAAGCAGC` : what is it?
OUTPUT: 3.45

INPUT: Reported PBM binding z-score for `ATATGTAGGTTATCAGGTCATTCAGTTTGCGCAT` : what is it?
OUTPUT: 3.44

INPUT: Reported PBM binding z-score for `TAGCCTAGGTCATGCGGGCCCGTATAGTGTCGGC` : what is it?
OUTPUT: 1.07

INPUT: Reported PBM binding z-score for `CCTAGTTGGTCAGGAGGTCACACACCGGATATGA` : what is it?
OUTPUT: 4.41

INPUT: Reported PBM binding z-score for `TAGCCTAGGTCATTCAGGGTCCAGTATAGAAAGC` : what is it?
OUTPUT: 3.27

INPUT: Reported PBM binding z-score for `TGAATCAGGTTAAAGATCAGGGAACGTGGCGTCG` : what is it?
OUTPUT: 0.343

INPUT: Reported PBM binding z-score for `TGAATGAGGTTAAAGATCAGGAAACGTGGCGTCG` : what is it?
OUTPUT: 2.17

INPUT: Reported PBM binding z-score for `TTACCAAGGTGAGCTGAGGTCGTAGATCCAACTC` : what is it?
OUTPUT: 4.2

INPUT: Reported PBM binding z-score for `AGAATGAGGTTACCACAGATCAGGGAAACGCTTG` : what is it?
OUTPUT: 1.05

INPUT: Reported PBM binding z-score for `TCGAGTAGGTTAACAATGGGGCATTCAGCTTTCT` : what is it?
OUTPUT: 0.403

INPUT: Reported PBM binding z-score for `ATCTCTACGTAACAAGTTCAGTGAAAGAGAGGAC` : what is it?
OUTPUT: 1.56

INPUT: Reported PBM binding z-score for `CAAACTAGCTCACCGGAAGGTCAAAGTCCGCATG` : what is it?
OUTPUT: 3.37

INPUT: Reported PBM binding z-score for `CCTTACGAGTCACTCCAGGTTATAGCATCGGAGT` : what is it?
OUTPUT: 1.2
